biological target: Bacillus stearothermophilus thermolysin; test: Inhibitor analysis of B.s. thermolysin; type: biochemical; settings: read-out: Inhibition Constant (Ki), B.s. Thermolysin
Entries and their pKi values follow.
Please treat pKi as minus the base-10 logarithm of the molar concentration.

The cases that follow already have their pKi on record.
• [Cl][Cd][Cl] = 5.70
• CC(C)C[C@H](NP(=O)(O)O[C@@H]1O[C@@H](C)[C@H](O)[C@@H](O)[C@H]1O)C(=O)N[C@@H](Cc1c[nH]c2ccccc12)C(=O)O = 4.59

# input for lookup
Exercise: For Bacillus stearothermophilus thermolysin, provide pKi of c1cnc2c(c1)ccc1cccnc12 please.
Solution: 4.07
